# testedTarget: T1, human CD33 (human, UniProt P20138 18-364)
# T1 construct: CD33 on human primary dendritic cells, macrophages, monocytes and T cells and on CHO cells expressing recombinant human CD33; also called Siglec-3; hCD33
# T1 sequence (P20138 18-364): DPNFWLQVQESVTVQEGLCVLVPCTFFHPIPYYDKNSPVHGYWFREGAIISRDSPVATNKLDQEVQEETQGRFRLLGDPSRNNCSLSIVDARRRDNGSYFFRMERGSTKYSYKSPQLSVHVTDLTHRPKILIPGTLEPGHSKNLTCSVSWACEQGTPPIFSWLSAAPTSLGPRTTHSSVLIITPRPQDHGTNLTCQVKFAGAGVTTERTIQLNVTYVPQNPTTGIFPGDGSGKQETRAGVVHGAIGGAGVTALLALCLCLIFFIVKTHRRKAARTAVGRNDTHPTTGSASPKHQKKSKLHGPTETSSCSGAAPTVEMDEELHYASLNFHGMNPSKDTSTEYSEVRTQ
# assayText: flow cytometry, human primary macrophages;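 also: binding of CD33 antibodies at 10 µg/ml to human primary macrophages, 1 h on ice, detected with PE-labelled secondary antibody by flow cytometry, reported as MFI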
measure: Macrophage MFI

The following binders have reported results that may help.
[[record]]
binder = "C-16 (antibody, V domains shown, human IgG1) VH: EVQLVESGGGLVQPGGSLRLSCAASGFTFSSYWMSWVRQAPGKGLEWVANINQDGSEKYYVDSVKGRFTISRDNAKNSLYLQMNSLRAEDTAVYYCAREGSDRHPFDYWGQGTLVTVSS VL: DIQMTQSPSSLSASVGDRVTITCRASQSISSYLNWYQQKPGKAPKLLIYAASSLQSGVPSRFSGSGSGTDFTLTISSLQPEDFATYYCQQAYLVPLTFGGGTKVEIK"
measure = "Macrophage MFI"
reportedresult = 711

[[record]]
binder = "C-61 (antibody, V domains shown, human IgG1) VH: QVQLVQSGAEVKKPGASVKVSCKASGYTFTSYYMHWVRQAPGQGLEWMGVINPSGGSTSYAQKFQGRVTMTRDTSTSTVYMELSSLRSEDTAVYYCARESQYYDVHGMDVWGQGTTVTVSS VL: EIVLTQSPGTLSLSPGERATLSCRASQSVSSSYLAWYQQKPGQAPRLLIYGASSRATGIPDRFSGSGSGTDFTLTISRLEPEDFAVYYCQQYYGLPLTFGGGTKVEIK"
measure = "Macrophage MFI"
reportedresult = 797


Now take the following binder into account.
# lookup: Macrophage MFI of C-3 (antibody, V domains shown, human IgG1) VH: QVQLVQSGAEVKKPGSSVKVSCKASGGTFSNYAISWVRQAPGQGLEWMGGIIPIFGTANYAQKFQGRVTITADESTSTAYMELSSLRSEDTAVYYCARDTGTYVTGDGMDVWGQGTTVTVSS VL: EIVMTQSPATLSVSPGERATLSCRASQSVSSNLAWYQQKPGQAPRLLIYGASTRATGIPARFSGSGSGTEFTLTISSLQSEDFAVYYCQQYDVWPITFGGGTKVEIK
715
